study.target: MDR1 (P-gp) (Homo sapiens, UniProt P08183)
Construct: host or cells: MDCKII
Sequence (P08183 whole entry): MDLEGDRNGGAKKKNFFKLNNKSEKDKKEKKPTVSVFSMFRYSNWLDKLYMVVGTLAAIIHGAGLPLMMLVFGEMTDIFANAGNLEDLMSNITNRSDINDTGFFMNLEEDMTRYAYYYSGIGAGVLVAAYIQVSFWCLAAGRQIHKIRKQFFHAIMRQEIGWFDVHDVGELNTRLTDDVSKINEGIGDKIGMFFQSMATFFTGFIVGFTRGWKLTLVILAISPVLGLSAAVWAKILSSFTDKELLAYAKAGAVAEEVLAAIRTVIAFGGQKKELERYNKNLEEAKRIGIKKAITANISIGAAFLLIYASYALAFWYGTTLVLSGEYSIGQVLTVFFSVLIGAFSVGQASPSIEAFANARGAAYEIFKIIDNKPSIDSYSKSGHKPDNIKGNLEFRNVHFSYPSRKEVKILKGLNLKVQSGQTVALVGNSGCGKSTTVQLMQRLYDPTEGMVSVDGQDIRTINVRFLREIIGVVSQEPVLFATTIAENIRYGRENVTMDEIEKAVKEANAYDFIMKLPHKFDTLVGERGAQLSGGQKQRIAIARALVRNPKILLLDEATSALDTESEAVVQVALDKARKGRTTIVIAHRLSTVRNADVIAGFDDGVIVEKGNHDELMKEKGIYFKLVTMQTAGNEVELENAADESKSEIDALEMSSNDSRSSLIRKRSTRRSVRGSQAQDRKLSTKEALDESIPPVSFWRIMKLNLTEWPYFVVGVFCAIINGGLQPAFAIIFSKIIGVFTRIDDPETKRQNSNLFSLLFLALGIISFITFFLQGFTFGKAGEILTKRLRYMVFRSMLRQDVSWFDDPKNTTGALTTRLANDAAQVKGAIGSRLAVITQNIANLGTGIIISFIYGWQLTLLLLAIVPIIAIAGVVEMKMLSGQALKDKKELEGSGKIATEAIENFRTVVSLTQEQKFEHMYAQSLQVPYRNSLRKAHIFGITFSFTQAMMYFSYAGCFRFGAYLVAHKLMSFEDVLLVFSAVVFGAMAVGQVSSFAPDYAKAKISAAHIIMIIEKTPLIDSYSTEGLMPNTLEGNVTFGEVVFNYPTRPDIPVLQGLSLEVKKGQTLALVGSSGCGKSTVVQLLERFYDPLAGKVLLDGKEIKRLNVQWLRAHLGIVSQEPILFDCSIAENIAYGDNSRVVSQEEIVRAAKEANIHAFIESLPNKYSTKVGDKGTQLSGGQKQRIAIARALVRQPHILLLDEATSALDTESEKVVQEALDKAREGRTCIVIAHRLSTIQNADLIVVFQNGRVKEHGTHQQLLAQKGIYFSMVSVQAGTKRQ
test.name: MDCKII-MDR1 monolayer bidirectional transport assay
Format: in vitro ADME
condition: human, MDCK-MDR1; MDCKII-MDR1 cells; 10 μM; 120 minutes
Procedure: The monolayer assays were performed using parental and BCRP or MDR1 transfected MDCKII cell monolayers. […] LY samples (100 μL from basolateral wells) were analyzed by measuring fluorescence with the following wavelengths: excitation – 430 nm, emission – 520 nm. Trans-epithelial electric resistance (TEER) of each well was measured to confirm the confluency of the monolayers after the experiments. […]
# Papp B→A at 120 min, 10 μM per entry
Just the number in ×10⁻⁶ cm/s, nothing appended.

Field Papp B→A at 120 min, 10 μM (entry O=C(c1cc(Cc2n[nH]c(=O)c3ccccc23)ccc1F)N1CCN(C(=O)C2CC2)CC1 ) reads 45

Would you kindly look at the next entry?
Field Papp B→A at 120 min, 10 μM (entry NC(=O)c1cccc2cn(-c3ccc([C@@H]4CCCNC4)cc3)nc12 ) reads 51.2
